Recorded values, source patent US9115122B2.

Field: Cell Viability (% of Vehicle) A375. Provide a value for each of the compounds that follow.
Tested on: A375 melanoma cells
Experiment: Cell proliferation WST-1 assay, single dose (Example 4)
Type: cell-based
Settings: 100 μM, 48 hours

Ask: Please report Cell Viability (% of Vehicle) A375 with A375 melanoma cells for item NCCN1C(=O)S/C(=C\c2ccc(O)cc2)C1=O [Compound 30f] .
Result: 8.8 ± 2 % of Vehicle

Ask: Please report Cell Viability (% of Vehicle) A375 with A375 melanoma cells for item CC(C)COc1ccccc1/C=C1\SC(=O)N(CCN)C1=O [Compound 30j] .
Result: 0.8 ± 0.02 % of Vehicle

Ask: Please report Cell Viability (% of Vehicle) A375 with A375 melanoma cells for item CCOc1ccc(/C=C/C(=O)NCCN)cc1 [Compound 20] .
Result: 81 ± 5 % of Vehicle

Ask: Please report Cell Viability (% of Vehicle) A375 with A375 melanoma cells for item CCOc1ccc(/C=C2\SC(=O)N(Cc3ccccn3)C2=O)cc1 [Compound 28j] .
Result: 124 ± 6 % of Vehicle

Ask: Please report Cell Viability (% of Vehicle) A375 with A375 melanoma cells for item CCOc1ccc(/C=C2\SC(=O)NC2=O)cc1 [Compound 2] .
Result: 110 ± 10 % of Vehicle

Ask: Please report Cell Viability (% of Vehicle) A375 with A375 melanoma cells for item CCOc1ccc(/C=C2\SC(=S)N(CCN)C2=O)cc1 [Compound 9] .
Result: 21 ± 10 % of Vehicle

Ask: Please report Cell Viability (% of Vehicle) A375 with A375 melanoma cells for item CC(C)COc1ccc(/C=C2\SC(=O)N(CCN)C2=O)cc1 [Compound 30g] .
Result: 1.8 ± 0.5 % of Vehicle

Ask: Please report Cell Viability (% of Vehicle) A375 with A375 melanoma cells for item CCOc1ccc(/C=C2\SC(=O)N(CC(C)N)C2=O)cc1 (stereo not shown) [Compound 22b] .
Result: 25 ± 4 % of Vehicle

Ask: Please report Cell Viability (% of Vehicle) A375 with A375 melanoma cells for item CCOc1ccc(/C=C2\SC(=O)N(C(CN)CN)C2=O)cc1 [Compound 22e] .
Result: 19 ± 4 % of Vehicle

Ask: Please report Cell Viability (% of Vehicle) A375 with A375 melanoma cells for item CCOc1ccc(/C=C2\CC(=O)N(CCN)C2=O)cc1 [Compound 13] .
Result: 29 ± 3 % of Vehicle

* * *

Test system: Jurkat T-cell leukemia cells
Test: Cell proliferation WST-1 assay, single dose (Example 4)
Type: cell-based
Conditions: 100 μM, 48 hours
MEASURED_ATTRIBUTE: Cell Viability (% of Vehicle) Jurkat

Ask: Please report Cell Viability (% of Vehicle) Jurkat with Jurkat T-cell leukemia cells for item CCOc1ccc(/C=C2\SC(=O)N(CCNS(=O)(=O)c3ccc(C#N)cc3)C2=O)cc1 [Compound 27b] .
Result: 103 ± 3 % of Vehicle

Ask: Please report Cell Viability (% of Vehicle) Jurkat with Jurkat T-cell leukemia cells for item CCOc1ccc(/C=C2\SC(=O)N(CCNC(=O)C(F)(F)F)C2=O)cc1 [Compound 25b] .
Result: 103 ± 6 % of Vehicle

Ask: Please report Cell Viability (% of Vehicle) Jurkat with Jurkat T-cell leukemia cells for item CCCN1C(=O)S/C(=C\c2ccc(OCC)cc2)C1=O [Compound 28d] .
Result: 101 ± 5 % of Vehicle

Ask: Please report Cell Viability (% of Vehicle) Jurkat with Jurkat T-cell leukemia cells for item CCOc1ccc(/C=C2\SC(=O)N(CCNC(=O)OCc3ccccc3)C2=O)cc1 [Compound 26d] .
Result: 112 ± 5 % of Vehicle

Ask: Please report Cell Viability (% of Vehicle) Jurkat with Jurkat T-cell leukemia cells for item N#Cc1ccc(COc2ccccc2/C=C2\SC(=O)N(CCN)C2=O)cc1 [Compound 30l] .
Result: 6.7 ± 1 % of Vehicle

Ask: Please report Cell Viability (% of Vehicle) Jurkat with Jurkat T-cell leukemia cells for item CCOc1ccc(/C=C2\SC(=O)N(CCNC(=O)OC(C)(C)C)C2=O)cc1 [Compound 26b] .
Result: 111 ± 9 % of Vehicle

Ask: Please report Cell Viability (% of Vehicle) Jurkat with Jurkat T-cell leukemia cells for item CC(C)COc1ccccc1/C=C1\SC(=O)N(CCN)C1=O [Compound 30j] .
Result: 1.8 ± 0.1 % of Vehicle

Ask: Please report Cell Viability (% of Vehicle) Jurkat with Jurkat T-cell leukemia cells for item CCOc1ccc(/C=C2\SC(=O)N(CCNC(C)=O)C2=O)cc1 [Compound 25a] .
Result: 105 ± 8 % of Vehicle

Ask: Please report Cell Viability (% of Vehicle) Jurkat with Jurkat T-cell leukemia cells for item CCOc1ccc(/C=C2\SC(=O)N(CCNC(=O)c3ccc(C#N)cc3)C2=O)cc1 [Compound 25d] .
Result: 102 ± 7 % of Vehicle

Ask: Please report Cell Viability (% of Vehicle) Jurkat with Jurkat T-cell leukemia cells for item CCOc1cccc(/C=C2\SC(=O)N(CCN)C2=O)c1 [Compound 30b] .
Result: 54 ± 5 % of Vehicle

Ask: Please report Cell Viability (% of Vehicle) Jurkat with Jurkat T-cell leukemia cells for item CCOc1ccc(/C=C2\SC(=O)N(CCNS(C)(=O)=O)C2=O)cc1 [Compound 27a] .
Result: 85 ± 3 % of Vehicle

Ask: Please report Cell Viability (% of Vehicle) Jurkat with Jurkat T-cell leukemia cells for item CCOc1ccc(/C=C2\SC(=O)N(CCNC)C2=O)cc1 [Compound 23a] .
Result: 83 ± 6 % of Vehicle

Ask: Please report Cell Viability (% of Vehicle) Jurkat with Jurkat T-cell leukemia cells for item CCOc1ccc(/C=C2\SC(=O)N(CC(C)N)C2=O)cc1 (stereo not shown) [Compound 22b] .
Result: 58 ± 10 % of Vehicle

Ask: Please report Cell Viability (% of Vehicle) Jurkat with Jurkat T-cell leukemia cells for item Cc1ccc(/C=C2\SC(=O)N(CCN)C2=O)cc1 [Compound 30d] .
Result: 71 ± 6 % of Vehicle

Ask: Please report Cell Viability (% of Vehicle) Jurkat with Jurkat T-cell leukemia cells for item CCOc1ccc(/C=C2\SC(=O)N(CCN(Cc3ccccc3)Cc3ccccc3)C2=O)cc1 [Compound 24b] .
Result: 104 ± 2 % of Vehicle

Ask: Please report Cell Viability (% of Vehicle) Jurkat with Jurkat T-cell leukemia cells for item CCNCCN1C(=O)S/C(=C\c2ccc(OCC)cc2)C1=O [Compound 23b] .
Result: 69 ± 10 % of Vehicle

Ask: Please report Cell Viability (% of Vehicle) Jurkat with Jurkat T-cell leukemia cells for item CCOc1ccc(/C=C2\SC(=O)N(CCN(C)C)C2=O)cc1 [Compound 24a] .
Result: 95 ± 1 % of Vehicle

Ask: Please report Cell Viability (% of Vehicle) Jurkat with Jurkat T-cell leukemia cells for item CCOc1ccc(/C=C2\SC(=O)N(CCN(Cc3ccc(C#N)cc3)Cc3cccc(C#N)c3)C2=O)cc1 [Compound 24c] .
Result: 100 ± 2 % of Vehicle

Ask: Please report Cell Viability (% of Vehicle) Jurkat with Jurkat T-cell leukemia cells for item CCOc1ccc(/C=C2\SC(=O)N(CCNC(=O)OC(C)(C)C)C2=O)cc1 [Compound 25c] .
Result: 92 ± 7 % of Vehicle

Ask: Please report Cell Viability (% of Vehicle) Jurkat with Jurkat T-cell leukemia cells for item CCOc1ccc(/C=C2\SC(=O)NC2=O)cc1 [Compound 2] .
Result: 104 ± 4 % of Vehicle

Ask: Please report Cell Viability (% of Vehicle) Jurkat with Jurkat T-cell leukemia cells for item CCOc1ccc(/C=C2\CC(=O)N(CCN)C2=O)cc1 [Compound 13] .
Result: 100 ± 10 % of Vehicle

Ask: Please report Cell Viability (% of Vehicle) Jurkat with Jurkat T-cell leukemia cells for item CCOc1ccc(/C=C2\SC(=O)N(C[C@H](N)C(=O)OC)C2=O)cc1 [Compound 22d] .
Result: 100 ± 5 % of Vehicle

Ask: Please report Cell Viability (% of Vehicle) Jurkat with Jurkat T-cell leukemia cells for item CCOc1ccc(/C=C2\SC(=O)N(Cc3ccccc3C(=O)O)C2=O)cc1 [Compound 28s] .
Result: 46 ± 1 % of Vehicle

Ask: Please report Cell Viability (% of Vehicle) Jurkat with Jurkat T-cell leukemia cells for item CCOc1ccc(/C=C2\SC(=O)N(Cc3cccc(C(=O)O)c3)C2=O)cc1 [Compound 28r] .
Result: 80 ± 3 % of Vehicle

Ask: Please report Cell Viability (% of Vehicle) Jurkat with Jurkat T-cell leukemia cells for item CCOc1ccc(/C=C2\SC(=O)N(C(CN)CN)C2=O)cc1 [Compound 22e] .
Result: 81 ± 9 % of Vehicle

Ask: Please report Cell Viability (% of Vehicle) Jurkat with Jurkat T-cell leukemia cells for item CCOc1ccc(/C=C2\SC(=O)N(Cc3ccc(C#N)cc3)C2=O)cc1 [Compound 28m] .
Result: 103 ± 11 % of Vehicle

Ask: Please report Cell Viability (% of Vehicle) Jurkat with Jurkat T-cell leukemia cells for item CCOc1ccc(/C=C2\SC(=O)N(C(C)CN)C2=O)cc1 (stereo not shown) [Compound 22c] .
Result: 54 ± 10 % of Vehicle

Ask: Please report Cell Viability (% of Vehicle) Jurkat with Jurkat T-cell leukemia cells for item CCOc1ccc(/C=C2\SC(=O)N(CCNS(=O)(=O)c3cn(C)cn3)C2=O)cc1 [Compound 27c] .
Result: 97 ± 4 % of Vehicle

Ask: Please report Cell Viability (% of Vehicle) Jurkat with Jurkat T-cell leukemia cells for item CCOc1ccc(/C=C2\SC(=O)N(CCCN)C2=O)cc1 [Compound 22a] .
Result: 9.0 ± 2 % of Vehicle

Ask: Please report Cell Viability (% of Vehicle) Jurkat with Jurkat T-cell leukemia cells for item CCOc1ccc(/C=C2\SC(=O)N(CCNC(=O)OCC3c4ccccc4-c4ccccc43)C2=O)cc1 [Compound 26e] .
Result: 139 ± 14 % of Vehicle

Ask: Please report Cell Viability (% of Vehicle) Jurkat with Jurkat T-cell leukemia cells for item CCOc1ccc(/C=C2\SC(=O)N(Cc3cccc(N)n3)C2=O)cc1 [Compound 28b] .
Result: 105 ± 5 % of Vehicle

Ask: Please report Cell Viability (% of Vehicle) Jurkat with Jurkat T-cell leukemia cells for item CCOc1ccc(/C=C2\SC(=O)N(CCNCc3ccccc3)C2=O)cc1 [Compound 23d] .
Result: 89 ± 4 % of Vehicle

Ask: Please report Cell Viability (% of Vehicle) Jurkat with Jurkat T-cell leukemia cells for item NCCN1C(=O)S/C(=C\c2ccc(O)cc2)C1=O [Compound 30f] .
Result: 96 ± 3 % of Vehicle

Ask: Please report Cell Viability (% of Vehicle) Jurkat with Jurkat T-cell leukemia cells for item CCOc1ccc(CC2SC(=O)N(CCN)C2=O)cc1 (stereo not shown) [Compound 6] .
Result: 108 ± 10 % of Vehicle

Ask: Please report Cell Viability (% of Vehicle) Jurkat with Jurkat T-cell leukemia cells for item CCOc1ccc(/C=C2\SC(=O)N(CCO)C2=O)cc1 [Compound 28e] .
Result: 101 ± 4 % of Vehicle

Ask: Please report Cell Viability (% of Vehicle) Jurkat with Jurkat T-cell leukemia cells for item CCOc1ccc(/C=C2\SC(=O)N(Cc3ccccc3)C2=O)cc1 [Compound 28i] .
Result: 105 ± 4 % of Vehicle

Ask: Please report Cell Viability (% of Vehicle) Jurkat with Jurkat T-cell leukemia cells for item CCOc1ccc(/C=C2\SC(=O)N(CCN)C2=O)cc1 [Compound 76] .
Result: 59 ± 5 % of Vehicle
